System: HCT116 colorectal cancer
Method: MTT cell viability assay, HCT-116
Type: cell-based
Test conditions: read-out: HCT-116 IC50, 48 h, mean of six values
Property name: IC50
Quick note: unit goes after the number.

Fill in the recorded IC50 for this compound, with HCT116 colorectal cancer as test system: O=c1[nH]cc(F)c(=O)[nH]1 [Compound 5-F.U., reference compound]
4.8 µM

----------
Tested on: normal fibroblast F180
Method: MTT cell viability assay, F180
Format: cell-based
Test conditions: F180, 48 h, read-out: F180 IC50
Give measured IC50 for each item. Keep answers brief.
One number for each entry, in µM.

Solved cases (2 shown):
{"Molecule": "COc1ccc(/C(CSc2nnc(-c3nnn(-c4ccc(S(N)(=O)=O)cc4)c3C)n2-c2ccccc2)=N\\O)cc1 [Compound 19c]", "IC50, µM": 15.4}
{"Molecule": "COc1cccc2c1C(=O)c1c(O)c3c(c(O)c1C2=O)C[C@@](O)(C(=O)CO)C[C@@H]3O[C@H]1C[C@H](N)[C@H](O)[C@H](C)O1 [Doxorubicin, doxorubicin, reference compound]", "IC50, µM": 4.28}

Turning now to a further record.
Please look up its IC50: COc1ccc(-n2c(SC/C(=N/O)c3ccc(C)cc3)nnc2-c2nnn(-c3ccc(S(N)(=O)=O)cc3)c2C)cc1 [Compound 19h]
11.3

----------
System name: UniProtKB P00533
Sequence (P00533 25-1210): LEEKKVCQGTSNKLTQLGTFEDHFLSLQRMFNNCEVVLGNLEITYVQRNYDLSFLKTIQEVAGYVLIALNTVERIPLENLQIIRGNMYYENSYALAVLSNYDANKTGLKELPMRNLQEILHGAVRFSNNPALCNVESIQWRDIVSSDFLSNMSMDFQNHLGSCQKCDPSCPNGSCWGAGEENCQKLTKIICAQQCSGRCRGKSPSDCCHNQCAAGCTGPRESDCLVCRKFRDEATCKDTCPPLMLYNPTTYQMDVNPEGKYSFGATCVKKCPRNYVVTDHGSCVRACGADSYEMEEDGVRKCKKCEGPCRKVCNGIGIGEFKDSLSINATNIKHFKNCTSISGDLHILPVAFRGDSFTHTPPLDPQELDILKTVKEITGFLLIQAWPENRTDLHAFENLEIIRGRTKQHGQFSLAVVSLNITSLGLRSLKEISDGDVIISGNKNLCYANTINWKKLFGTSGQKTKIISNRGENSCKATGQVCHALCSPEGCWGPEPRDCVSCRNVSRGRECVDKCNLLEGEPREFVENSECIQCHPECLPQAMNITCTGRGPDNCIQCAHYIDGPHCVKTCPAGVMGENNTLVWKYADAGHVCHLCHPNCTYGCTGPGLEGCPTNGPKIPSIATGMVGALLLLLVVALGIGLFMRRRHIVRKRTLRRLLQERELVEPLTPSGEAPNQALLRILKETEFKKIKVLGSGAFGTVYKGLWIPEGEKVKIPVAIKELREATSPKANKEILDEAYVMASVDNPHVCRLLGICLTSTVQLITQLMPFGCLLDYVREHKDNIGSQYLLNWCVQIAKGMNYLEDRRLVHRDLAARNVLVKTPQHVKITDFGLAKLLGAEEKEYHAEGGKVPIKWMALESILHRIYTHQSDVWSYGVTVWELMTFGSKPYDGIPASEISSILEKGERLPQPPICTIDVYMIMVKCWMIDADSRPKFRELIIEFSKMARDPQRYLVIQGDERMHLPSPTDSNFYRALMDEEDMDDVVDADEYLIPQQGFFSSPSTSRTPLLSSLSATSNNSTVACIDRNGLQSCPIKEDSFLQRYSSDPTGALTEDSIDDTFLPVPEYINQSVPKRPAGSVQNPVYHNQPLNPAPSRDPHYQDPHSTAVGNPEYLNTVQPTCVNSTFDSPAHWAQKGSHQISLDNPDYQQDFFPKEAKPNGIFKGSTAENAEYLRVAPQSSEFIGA
Give measured pIC50 for each item. Keep answers brief.
Give bare numbers, as −log10 of the molar value.

{"Molecule": "COc1ccc(-n2c(SC/C(=N/O)c3ccc(C)cc3)nnc2-c2nnn(-c3ccc(S(N)(=O)=O)cc3)c2C)cc1 [Compound 19h]", "pIC50": 6.77}
{"Molecule": "COC(=O)N[C@@H](C)CNc1nccc(-c2cn(C(C)C)nc2-c2cc(Cl)cc(NS(C)(=O)=O)c2F)n1 [Encorafenib, encorafenib, reference compound]", "pIC50": 7.43}

Please look up its pIC50: COc1ccc(/C(CSc2nnc(-c3nnn(-c4ccc(S(N)(=O)=O)cc4)c3C)n2-c2ccccc2)=N\O)cc1 [Compound 19c]
6.95

----------
System name: COX-2 (Homo sapiens, UniProt P35354)
Sequence (P35354 18-604): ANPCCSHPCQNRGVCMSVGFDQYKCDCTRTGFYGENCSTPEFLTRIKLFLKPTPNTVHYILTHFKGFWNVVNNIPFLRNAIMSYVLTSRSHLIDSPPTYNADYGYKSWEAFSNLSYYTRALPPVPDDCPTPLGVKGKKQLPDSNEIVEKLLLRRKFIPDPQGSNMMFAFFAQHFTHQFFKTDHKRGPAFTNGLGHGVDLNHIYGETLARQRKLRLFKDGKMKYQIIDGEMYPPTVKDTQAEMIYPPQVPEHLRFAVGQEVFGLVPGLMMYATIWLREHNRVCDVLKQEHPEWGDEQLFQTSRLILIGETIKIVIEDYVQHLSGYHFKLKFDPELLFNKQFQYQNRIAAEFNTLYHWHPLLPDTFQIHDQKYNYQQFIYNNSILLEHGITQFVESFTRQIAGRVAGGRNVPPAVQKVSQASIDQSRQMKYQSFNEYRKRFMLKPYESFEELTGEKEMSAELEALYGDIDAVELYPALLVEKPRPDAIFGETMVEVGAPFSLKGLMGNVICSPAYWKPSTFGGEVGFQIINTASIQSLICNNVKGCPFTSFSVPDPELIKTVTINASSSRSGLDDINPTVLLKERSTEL
Method: biochemical
Test conditions: in vitro COX-2 selectivity index, IC50 (COX-1)/IC50 (COX-2)
Property name: COX-2 S.I.
Answers are plain numbers.

{"Compound": "COc1ccc(-n2c(SC/C(=N/O)c3ccc(C)cc3)nnc2-c2nnn(-c3ccc(S(N)(=O)=O)cc3)c2C)cc1 [Compound 19h]", "Property name": "COX-2 S.I.", "Numeric value": 27.83}
{"Compound": "COc1ccc(/C(CSc2nnc(-c3nnn(-c4ccc(S(N)(=O)=O)cc4)c3C)n2-c2ccccc2)=N\\O)cc1 [Compound 19c]", "Property name": "COX-2 S.I.", "Numeric value": 34.62}
{"Compound": "Cc1c(-c2nnc(SC/C(=N/O)c3ccc(Cl)cc3)n2-c2ccccc2)nnn1-c1ccc(S(N)(=O)=O)cc1 [Compound 19d]", "Property name": "COX-2 S.I.", "Numeric value": 10.59}

Turning now to a further record.
Please look up its COX-2 S.I.: Cc1ccc(/C(CSc2nnc(-c3nnn(-c4ccc(S(N)(=O)=O)cc4)c3C)n2-c2ccccc2)=N\O)cc1 [Compound 19b]
9.11

----------
System name: COX-1 (Ovis aries)
Sequence (P05979 25-600): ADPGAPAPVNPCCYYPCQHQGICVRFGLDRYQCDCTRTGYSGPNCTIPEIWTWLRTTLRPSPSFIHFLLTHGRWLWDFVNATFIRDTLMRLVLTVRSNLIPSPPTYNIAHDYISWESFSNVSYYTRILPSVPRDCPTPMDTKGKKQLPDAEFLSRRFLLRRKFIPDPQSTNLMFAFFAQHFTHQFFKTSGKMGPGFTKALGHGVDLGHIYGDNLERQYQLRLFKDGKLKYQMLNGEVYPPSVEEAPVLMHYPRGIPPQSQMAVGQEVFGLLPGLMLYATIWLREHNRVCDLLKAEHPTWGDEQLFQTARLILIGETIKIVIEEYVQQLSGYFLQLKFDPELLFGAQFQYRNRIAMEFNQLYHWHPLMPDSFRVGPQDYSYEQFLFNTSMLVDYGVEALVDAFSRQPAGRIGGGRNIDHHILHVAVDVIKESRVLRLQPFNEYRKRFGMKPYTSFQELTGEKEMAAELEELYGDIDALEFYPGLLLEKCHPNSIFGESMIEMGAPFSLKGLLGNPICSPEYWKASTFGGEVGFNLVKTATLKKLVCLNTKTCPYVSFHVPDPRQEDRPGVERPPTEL
Please note: IC50 exactly at 5 µM is false (0). Only values below 5 µM get true (1).

{"Compound": "COc1ccc(/C(CSc2nnc(-c3nnn(-c4ccc(S(N)(=O)=O)cc4)c3C)n2-c2ccccc2)=N\\O)cc1 [Compound 19c]", "Assigned class": "false (0)"}

Please let me know if COc1ccc(-n2c(SC/C(=N/O)c3ccccc3)nnc2-c2nnn(-c3ccc(S(N)(=O)=O)cc3)c2C)cc1 [Compound 19g] shows IC50 below 5 µM.
true (1)

Please let me know if COc1ccc(-n2c(SC/C(=N/O)c3ccc(Cl)cc3)nnc2-c2nnn(-c3ccc(S(N)(=O)=O)cc3)c2C)cc1 [Compound 19j] shows IC50 below 5 µM.
true (1)

Please let me know if Cc1c(-c2nnc(SC/C(=N/O)c3ccccc3)n2-c2ccccc2)nnn1-c1ccc(S(N)(=O)=O)cc1 [Compound 19a] shows IC50 below 5 µM.
true (1)

Please let me know if Cc1ccc(/C(CSc2nnc(-c3nnn(-c4ccc(S(N)(=O)=O)cc4)c3C)n2-c2ccccc2)=N\O)cc1 [Compound 19b] shows IC50 below 5 µM.
true (1)

Please let me know if COc1ccc(-n2c(SC/C(=N/O)c3ccc(C)cc3)nnc2-c2nnn(-c3ccc(S(N)(=O)=O)cc3)c2C)cc1 [Compound 19h] shows IC50 below 5 µM.
false (0)

Please let me know if Cc1c(-c2nnc(SC/C(=N/O)c3ccc(Cl)cc3)n2-c2ccccc2)nnn1-c1ccc(S(N)(=O)=O)cc1 [Compound 19d] shows IC50 below 5 µM.
true (1)

Please let me know if COc1ccc(/C(CSc2nnc(-c3nnn(-c4ccc(S(N)(=O)=O)cc4)c3C)n2-c2ccc(OC)cc2)=N\O)cc1 [Compound 19i] shows IC50 below 5 µM.
true (1)

----------
System name: aromatase (CYP19A) (Homo sapiens, UniProt P11511)
Sequence (P11511 whole entry): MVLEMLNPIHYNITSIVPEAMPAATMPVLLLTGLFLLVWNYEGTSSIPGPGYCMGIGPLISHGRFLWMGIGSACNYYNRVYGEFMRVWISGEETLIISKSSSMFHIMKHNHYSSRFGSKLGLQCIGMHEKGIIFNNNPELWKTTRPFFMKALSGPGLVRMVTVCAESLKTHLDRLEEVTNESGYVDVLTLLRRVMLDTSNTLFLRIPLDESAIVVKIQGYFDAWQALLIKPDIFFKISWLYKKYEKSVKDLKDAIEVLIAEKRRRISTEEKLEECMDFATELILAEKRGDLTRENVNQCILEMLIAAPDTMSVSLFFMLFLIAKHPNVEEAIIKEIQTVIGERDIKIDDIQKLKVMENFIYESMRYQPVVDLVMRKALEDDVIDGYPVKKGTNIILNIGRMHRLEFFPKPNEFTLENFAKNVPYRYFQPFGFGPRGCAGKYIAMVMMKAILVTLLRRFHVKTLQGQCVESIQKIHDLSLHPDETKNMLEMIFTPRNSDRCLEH
Property name: pIC50
One number for each entry, as −log10 of the molar value.

{"Molecule": "COc1ccc(-n2c(SC/C(=N/O)c3ccc(C)cc3)nnc2-c2nnn(-c3ccc(S(N)(=O)=O)cc3)c2C)cc1 [Compound 19h]", "Property name": "pIC50", "Numeric value": 4.64}

Turning now to a further record.
Fill in the recorded pIC50 for this molecule, with aromatase (CYP19A) (Homo sapiens, UniProt P11511) as test system: COc1ccc(/C(CSc2nnc(-c3nnn(-c4ccc(S(N)(=O)=O)cc4)c3C)n2-c2ccccc2)=N\O)cc1 [Compound 19c]
4.65
